# Tested on: NEK3;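 also: KINOMEscan kinase panel screen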
# experimental.parameters: concentration: 1 μM,replicates: in singlicate; n = 1
Rule: measured %Inh below 20% gets MET; anything equal to or greater than 20% gets NOT MET.

Example entries begin here.
[
  {
    "compound": "Cl.c1ccc(Oc2ccc(Nc3ccnc4cc(-c5ccc(CN6CCNCC6)o5)ccc34)cc2)nc1",
    "category": "MET"
  },
  {
    "compound": "CCNCC(Cc1ccccc1)NC(=O)c1cc(Br)c(-c2ccnc3[nH]ccc23)s1.Cl.Cl (stereo not drawn)",
    "category": "MET"
  },
  {
    "compound": "O=C(Nc1n[nH]c2cc(-c3ccco3)ccc12)C1CC1",
    "category": "NOT MET"
  }
]

Inquiry: Dear reviewer, please state whether CN(c1ccccc1CNc1nc(Nc2ccc3c(c2)CC(=O)N3)ncc1C(F)(F)F)S(C)(=O)=O has %Inh strictly beneath 20%.
Reply text: NOT MET

Inquiry: Is 20% strictly greater than the compound's reported %Inh? compound: CCn1c(-c2nonc2N)nc2cncc(Br)c21
Reply text: MET

Inquiry: Given CS(=O)(=O)c1cccc(CNc2nc(Nc3ccc4c(c3)[C@@H]3C[C@@H]4CNC3=O)ncc2C(F)(F)F)c1 , is recorded %Inh strictly lower than 20%?
Reply text: NOT MET

Inquiry: Confirm or reject: %Inh of Cc1cccc2c(-c3ccncc3)c(-c3ccc(F)cc3)nn12.Cl lies strictly below 20%
Reply text: MET

Inquiry: A record lists Cc1ccc(CC(=O)N2CCc3cc(-c4cn(C)c5ncnc(N)c45)ccc32)cc1 . Is its %Inh below 20%?
Reply text: MET

Inquiry: In the record for COc1cc2nccc(Nc3ccc(Oc4ccccc4)cc3)c2cc1OC.Cl , is %Inh less than 20%?
Reply text: MET
